The values you see were collected from patent US20260139048A1.

- Assay target: T1, TIGIT on TIGIT-over expressing NFAT-Luc/Jurkat effector cells (GenScript reporter cell line) (UniProt Q495A1 22-244, limits assumed)
- T1 sequence (looked up): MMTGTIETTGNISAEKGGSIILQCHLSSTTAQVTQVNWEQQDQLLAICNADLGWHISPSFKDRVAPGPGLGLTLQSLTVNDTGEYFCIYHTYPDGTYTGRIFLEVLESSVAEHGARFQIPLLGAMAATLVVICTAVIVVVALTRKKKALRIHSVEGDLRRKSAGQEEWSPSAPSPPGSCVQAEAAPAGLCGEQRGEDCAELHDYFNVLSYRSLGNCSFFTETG
- Method summary: cell-based or functional assay
Could you please report measured EC50 for the items listed next?
Report the value in nM with no unit label.

[ask] // EC50 lookup, key: TIGIT-6 chimeric antibody (antibody, human IgG1, kappa, V domains shown, also called 6VH + 6VL) VH: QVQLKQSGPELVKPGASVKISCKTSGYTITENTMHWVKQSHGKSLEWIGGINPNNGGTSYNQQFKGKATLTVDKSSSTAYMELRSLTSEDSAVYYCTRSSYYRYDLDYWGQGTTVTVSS VL: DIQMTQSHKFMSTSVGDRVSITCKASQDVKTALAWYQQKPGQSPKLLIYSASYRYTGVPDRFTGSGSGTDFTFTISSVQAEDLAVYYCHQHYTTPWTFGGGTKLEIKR
[reply] 4.9

[ask] // EC50 lookup, key: Hu1217-2-2 (anti-TIGIT positive control antibody) (antibody, V domains shown) VH: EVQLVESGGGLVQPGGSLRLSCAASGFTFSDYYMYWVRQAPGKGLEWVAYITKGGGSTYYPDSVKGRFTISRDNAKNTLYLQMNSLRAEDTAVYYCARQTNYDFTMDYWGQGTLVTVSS VL: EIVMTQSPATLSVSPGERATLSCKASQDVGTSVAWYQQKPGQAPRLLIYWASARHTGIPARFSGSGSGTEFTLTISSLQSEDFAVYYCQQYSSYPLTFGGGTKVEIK
[reply] 11.1

[ask] // EC50 lookup, key: huTIGIT-19-4 (antibody, human IgG1, kappa, V domains shown, Humanized IgG; also called 19VH4.M10 + 19VL1.M7) VH: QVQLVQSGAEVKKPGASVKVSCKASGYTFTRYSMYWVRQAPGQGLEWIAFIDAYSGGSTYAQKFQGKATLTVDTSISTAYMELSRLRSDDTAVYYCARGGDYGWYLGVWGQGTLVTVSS VL: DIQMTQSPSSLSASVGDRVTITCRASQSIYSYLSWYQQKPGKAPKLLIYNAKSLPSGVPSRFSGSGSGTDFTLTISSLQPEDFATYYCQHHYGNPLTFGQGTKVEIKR
[reply] 4.28
